Test system: HL60 cells
Test: Growth of HL60 cells (IC50)
Type: cell-based, human
Details: Homo sapiens, HL-60, read-out: HL-60, IC50, HL-60 cells, growth; no unit in head or cell (other cells of the column print uM)
Please go through the items and note down their IC50.

O=C1C=C2C=CC3CC2(O1)C1=C(Br)CCCN13 (centres unmarked) [INV-SZ-118-2] :: 0.31 to 0.62 µM
COC(OC)[C@H]1CC[C@H]2N1[C@@H]1C=C(I)C3=CC(=O)O[C@@]32C1 [INVS-MG-99B = 52B] :: 0.156 to 0.31 µM
COC(OC)[C@H]1CC[C@H]2N1[C@@H]1C=C(I)C3=CC(=O)O[C@@]32C1 [INVS-MG-99-IVB-I] :: 0.31 to 0.625 µM
COC(OC)[C@H]1CC[C@H]2N1[C@@H]1C=CC3=CC(=O)O[C@@]32C1 [INVS-MG-99D = 52D] :: 0.31 to 0.625 µM

Tell me the measured IC50 of C[Si](C)(C)C#CC1=C[C@@H]2C[C@@]3(OC(=O)C=C13)[C@H]1CCCCN21 [INVS-MG-207-IIIA] , please.
1.25 to 2.5 µM

---

Tested on: HL60 cells
Test: Growth of HL60 cells (IC50)
Format: cell-based, human
Details: Homo sapiens, HL-60, read-out: HL-60, IC50, HL-60 cells, growth; no unit in head or cell (other cells of the column print uM)
Protocol: The analogs were then tested and evaluated on the ability to affect differentiation and growth of HL60 cells.
value-type: IC50

The examples below pair each entry with its known result.
COC(OC)[C@H]1CC[C@H]2N1[C@@H]1C=C(C#Cc3cc4ccccc4c4ccccc34)C3=CC(=O)O[C@@]32C1 [INVS-MG-220B] :: 0.156 µM
CN(C)c1ccc(C#CC2=C[C@@H]3C[C@@]4(OC(=O)C=C24)[C@H]2CCCCN32)cc1 :: 0.07 to 0.156 µM
O=C1C=C2C(C#Cc3cc4ccccc4c4ccccc34)=C[C@@H]3C[C@@]2(O1)[C@H]1CCCCN31 :: 0.156 to 0.31 µM

Give the reported IC50 for CCN(CC)CC#CC1=C[C@@H]2C[C@@]3(OC(=O)C=C13)[C@H]1CCCCN21 (system: HL60 cells).
0.07 to 0.156 µM

---

System: SKOV3 P53−/−
Assay: Growth inhibition of ovary cancer SKOV3 P53−/−
Type: cell-based
Settings: Homo sapiens, SK-OV-3, ovary cancer SKOV3 P53−/−
value-type: IC50 (nM)
Numbers only, in nM.

N#Cc1ccc(C#CC2=C[C@@H]3C[C@@]4(OC(=O)C=C24)[C@H]2CCCCN32)cc1 [INVS-MG-164B] :: 4200
N#CCCCC#CC1=C[C@@H]2C[C@@]3(OC(=O)C=C13)[C@H]1CCCCN21 [INVS-MG-125A] :: 2400
O=C1C=C2C(C#Cc3ccccc3)=C[C@@H]3C[C@@]2(O1)[C@H]1CCCCN31 [INVS-MG-110B] :: 3000

Field: IC50. Fill in for each record below.
1. CN(C)CC#CC1=C[C@@H]2C[C@@]3(OC(=O)C=C13)[C@H]1CCCCN21 [INVS-MG-111B]
2. CCN(CC)CC#CC1=C[C@@H]2C[C@@]3(OC(=O)C=C13)[C@H]1CCCCN21 [INVS-MG-145A]
3. CCCN(CC#CC1=C[C@@H]2C[C@@]3(OC(=O)C=C13)[C@H]1CCCCN21)CCC [INVS-MG-152A]
4. C=C(C)CC#CC1=C[C@@H]2C[C@@]3(OC(=O)C=C13)[C@H]1CCCCN21 [INVS-MG-132A]
5. COc1cccc(C#CC2=C[C@@H]3C[C@@]4(OC(=O)C=C24)[C@H]2CCCCN32)c1 [INVS-MG-165B]
6. O=C1C=C2C(C#Cc3cc4ccccc4c4ccccc34)=C[C@@H]3C[C@@]2(O1)[C@H]1CCCCN31 [INVS-MG-158B]

1: 2800; 2: 1200; 3: 700; 4: 3800; 5: 3500; 6: 3100

---

Tested on: SKOV3 P53−/−
Test: Growth inhibition of ovary cancer SKOV3 P53−/−
Format: cell-based
Conditions: Homo sapiens, SK-OV-3, ovary cancer SKOV3 P53−/−
Please go through the items and note down their IC50.
Put down the number, then write its unit next to it.

O=C1C=C2C(I)=C[C@@H]3C[C@@]2(O1)[C@H]1CCCCN31 :: 3100 nM

Field: IC50. Fill in for each record below.
1. O=C1C=C2C(C#Cc3ccc(OC(F)(F)F)cc3)=C[C@@H]3C[C@@]2(O1)[C@H]1CCCCN31 [INVS-MG-166B]
2. CCOC#CC1=C[C@@H]2C[C@@]3(OC(=O)C=C13)[C@H]1CCCCN21 [INVS-MG-120A]
3. COc1ccc(C#CC2=C[C@@H]3C[C@@]4(OC(=O)C=C24)[C@H]2CCCCN32)cc1 [INVS-MG-134C]
4. CN(C)c1ccc(C#CC2=C[C@@H]3C[C@@]4(OC(=O)C=C24)[C@H]2CCCCN32)cc1 [INVS-MG-146B]
5. COc1ccc2cc(C#CC3=C[C@@H]4C[C@@]5(OC(=O)C=C35)[C@H]3CCCCN43)ccc2c1 [INVS-MG-157B]

1: 3200 nM; 2: 2600 nM; 3: 2800 nM; 4: 800 nM; 5: 700 nM

Where do these numbers come from? They come from patent US9827229B2.
